Reference source: the kinase profiling compilation of Christmann-Franck et al. (2016)

Documented kinase still bound, per cent of control across a set of molecules
study_system: GSK3A (human) (UniProt P49840)
Sequence (P49840 whole entry, looked up): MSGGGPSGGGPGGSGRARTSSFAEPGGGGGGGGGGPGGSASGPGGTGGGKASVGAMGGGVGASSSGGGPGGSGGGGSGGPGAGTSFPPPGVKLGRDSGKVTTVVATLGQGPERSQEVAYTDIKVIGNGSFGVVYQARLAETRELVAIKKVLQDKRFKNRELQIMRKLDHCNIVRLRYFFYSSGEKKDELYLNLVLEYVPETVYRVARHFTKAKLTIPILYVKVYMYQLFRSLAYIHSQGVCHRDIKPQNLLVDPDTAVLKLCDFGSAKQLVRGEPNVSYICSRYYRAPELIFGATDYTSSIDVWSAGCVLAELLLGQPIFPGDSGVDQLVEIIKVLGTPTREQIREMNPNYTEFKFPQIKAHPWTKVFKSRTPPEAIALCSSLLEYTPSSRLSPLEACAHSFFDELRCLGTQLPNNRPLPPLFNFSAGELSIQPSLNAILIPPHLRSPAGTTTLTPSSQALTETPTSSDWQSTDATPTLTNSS
assay: KINOMEscan competition binding
particulars: compound 1.0 µM
Field: numeric (%). Do not append units.

Consider the following illustrative entries.
structure_notation | study_system | parameter_measured | quantitative_result
Cc1cc(NC(=O)c2cccc(NC(=O)/C=C/CN(C)C)c2)ccc1Nc1nccc(-c2cccnc2)n1 | GSK3A (human) (UniProt P49840) | kinase still bound, per cent of control | 92
CN(C)C/C=C/C(=O)Nc1cccc(C(=O)Nc2ccc(Nc3nccc(-c4cccnc4)n3)cc2)c1 | GSK3A (human) (UniProt P49840) | kinase still bound, per cent of control | 65

Record for CN(C)C/C=C/C(=O)Nc1cccc(C(=O)Nc2ccc(Nc3nccc(-c4c(-c5ccccc5)nn5ccccc45)n3)cc2)c1 under target or system GSK3A (human) (UniProt P49840): kinase still bound, per cent of control reported as 38

Record for CN(C)C/C=C/C(=O)Nc1cccc(C(=O)Nc2ccc(Nc3nccc(/C(C#N)=C4\Nc5ccccc5S4)n3)cc2)c1 under target or system GSK3A (human) (UniProt P49840): kinase still bound, per cent of control reported as 59
